ASSAY TARGET: CXCL3 (human, UniProt P19876 35-107)
ASSAY PROTOCOL: BLI
REPORTED METRIC: pKd
Friendly reminder that pKd comes from taking -log10 of the concentration in mol/L.

Quote pKd reported for P1156 (evasin from Ixodes ricinus), purified, C-terminal StrepII:His tag (natural protein) DGGADDDNELFTVQYCGMNCTKDEGGTWTGCTGKKEGCKCYHESGKNYGLCLSTEYTDFSQYGNPSDSEIEAAKPKRSDTLSH please.
7.15
